Molecular target: IDH1 R132H (Homo sapiens, UniProt O75874, R132H)
Sequence (O75874 whole entry R132H): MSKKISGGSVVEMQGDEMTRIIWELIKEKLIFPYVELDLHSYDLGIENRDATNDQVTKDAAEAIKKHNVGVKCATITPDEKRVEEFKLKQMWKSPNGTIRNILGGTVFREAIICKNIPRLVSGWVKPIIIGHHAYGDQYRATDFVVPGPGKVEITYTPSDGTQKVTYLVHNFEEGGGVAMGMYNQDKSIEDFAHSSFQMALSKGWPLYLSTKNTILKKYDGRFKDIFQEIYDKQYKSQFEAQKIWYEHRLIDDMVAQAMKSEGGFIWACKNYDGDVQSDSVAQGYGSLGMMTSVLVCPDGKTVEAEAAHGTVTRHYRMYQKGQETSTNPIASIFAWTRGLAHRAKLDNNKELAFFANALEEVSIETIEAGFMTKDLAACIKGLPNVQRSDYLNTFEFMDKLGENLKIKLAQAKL
Test: IDH1 R132H enzymatic assay (NADPH depletion coupled to diaphorase/resazurin)
Format: biochemical
Conditions: IDH1 R132H enzymatic inhibition, IC50 class
observed-property: IC50

molecule | recorded-measurement
CCc1cccc(CC)c1-n1c(CC(C)C)c(C(=O)N2CCNCC2)cc(-c2nc(-c3ccc(C(C)(C)C)cc3)c(C)s2)c1=O [Compound 160] | 1000 to 5000 nM
CCOc1ccc(F)cc1-n1c(C=C(C)C)c(C(=O)N2CCNCC2)cc(-c2nc(-c3ccc(C(F)(F)F)cc3)cs2)c1=O [Compound 329] | < 300 nM
COc1ccc(F)cc1-n1c(C=C(C)C)c(C(=O)N2CCNCC2)cc(-c2nc(-c3ccc(Cl)cc3)cs2)c1=O [Compound 630] | < 300 nM
CCc1cccc(CC)c1-n1c2c(cc(-c3nc(-c4ccc(O)cc4)cs3)c1=O)C(=O)CC(C)(C)C2 [Compound 281] | 5000 to 20000 nM
CCOc1ncc(C)cc1-n1c(C=C(C)C)c(C(=O)N2CCNCC2)cc(-c2nc(-c3ccc(C(F)F)nc3)cs2)c1=O [Compound 326] | < 300 nM
Cc1ccc(-c2csc(-c3cc4c(n(-c5ccccc5C(F)(F)F)c3=O)CC(C)(C)CC4=O)n2)cc1 [Compound 71] | 300 to 1000 nM
CC1(C)CC(=O)c2cc(-c3nc(-c4ccc(Cl)cc4)cs3)c(=O)n(C3CCCCC3)c2C1 [Compound 216] | > 20000 nM
